Source: the supplement of paper PMC10567573

B1: TMEM106C (parent)
chain: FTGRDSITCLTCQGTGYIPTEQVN

Variants of: B1
Assay: protein stability index of a GFP-peptide fusion (GPS, HEK-293T) (PSI 1-6); higher = more stable;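 note: lentivirally expressed fusions sorted by FACS into six bins by GFP to DsRed ratio, PSI derived from sequencing read proportions per bin multiplied by bin number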
Conditions: c terminus: a fixed tail appended
outcome_measure: protein stability index
Quick one: just the number, no unit, thanks!

## Task Give recorded protein stability index. T2D
## Result 4.1

New cases:
## Task Give recorded protein stability index. R4A
## Result 1.86

## Task Give recorded protein stability index. Q22H
## Result 1.47

## Task Give recorded protein stability index. C12V
## Result 1.83

## Task Give recorded protein stability index. G14D
## Result 1.56

## Task Give recorded protein stability index. T2Q
## Result 2.91

## Task Give recorded protein stability index. V23A
## Result 2.21

## Task Give recorded protein stability index. E21N
## Result 2.39

## Task Give recorded protein stability index. C9R
## Result 1.52

## Task Give recorded protein stability index. T2V
## Result 2.87

## Task Give recorded protein stability index. L10Q
## Result 3.17

## Task Give recorded protein stability index. G3T
## Result 2.04

## Task Give recorded protein stability index. I7C
## Result 1.73

## Task Give recorded protein stability index. G3K
## Result 3.49

## Task Give recorded protein stability index. Q13T
## Result 2.71

## Task Give recorded protein stability index. T15L
## Result 1.89

## Task Give recorded protein stability index. C12E
## Result 2.18

## Task Give recorded protein stability index. N24G
## Result 2.29
